Readings of kon for the listed binders
Biological target: T1, monovalent hVISTA-ECD (human VISTA extracellular domain with His tail) (human, UniProt Q9H7M9 33-193)
T1 construct: analyte flowed over captured antibody; also called huVISTA-His
T1 sequence (Q9H7M9 other isoform, or with tags, fused parts or gaps limits assumed): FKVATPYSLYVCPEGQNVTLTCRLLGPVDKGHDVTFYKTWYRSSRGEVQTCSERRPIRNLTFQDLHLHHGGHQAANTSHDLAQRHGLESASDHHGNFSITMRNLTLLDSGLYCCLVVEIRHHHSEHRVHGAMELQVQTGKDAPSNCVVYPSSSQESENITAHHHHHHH
Experiment: SPR, pH 6.0
Give a bare numeral; the unit M⁻¹ s⁻¹ is implied.

{"binder": "P1-064540 (41F11_VH_T28P/Y50W/S55E/A60H/Y100E) (antibody, V domains shown, Kabat positions; also called P1-064540-1) VH: QVQLVESGGGLVKPGGSLRLSCAASGFPFSDYYMSWIRQAPGKGLEWVSWISNSGEPIYYHDSVKGRFTISRDNAKNSLYLQMNSLRAEDTAVYYCARDLPGWEFDLWGRGTLVTVSS VL: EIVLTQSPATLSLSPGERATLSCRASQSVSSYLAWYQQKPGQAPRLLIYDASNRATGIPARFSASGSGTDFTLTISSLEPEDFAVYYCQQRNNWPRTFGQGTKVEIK", "kon [M⁻¹ s⁻¹]": "7.16e+06"}

Now consider a different binder.
Problem: State the recorded kon for this entry: P1-064478 (41F11_VH_Y50E) (antibody, V domains shown, Kabat positions; also called P1-064478-1) VH: QVQLVESGGGLVKPGGSLRLSCAASGFTFSDYYMSWIRQAPGKGLEWVSEISNSGSPIYYADSVKGRFTISRDNAKNSLYLQMNSLRAEDTAVYYCARDLPGWYFDLWGRGTLVTVSS VL: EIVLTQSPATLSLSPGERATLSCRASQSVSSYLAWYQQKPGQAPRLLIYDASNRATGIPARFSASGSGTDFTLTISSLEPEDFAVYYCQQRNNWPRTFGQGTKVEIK
Solution: 126000

Taken from patent US20220073617A1.
